System: D. folliculorum
Experiment Description: In-vitro culture of Demodex mites: effect of compounds on survival time
Assay type: cell-based
Condition Notes: compared with negative control 10% DMSO (80.79±25.34); 20° C., humidity 96%
Observed Property: survival time of the Demodex mites in vitro
Response field accepts a number only; no unit should be typed.

# example entries with known answers
Entry COc1ccc(-c2cc(=O)c3c(O)cc(O)cc3o2)cc1O , survival time of the Demodex mites in vitro reported as 35.92

Notebook: CC1(C)CC[C@]2(C)CC=C3[C@]4(C)CC[C@H]5C(C)(C)[C@@H](O)CC[C@]5(C)[C@H]4CC[C@@]3(C)[C@@H]2C1 , survival time of the Demodex mites in vitro read as 37.91

Value of measured survival time of the Demodex mites in vitro for the entry C=C[C@@H]1C2=CCOC(=O)C2=CO[C@H]1O[C@@H]1O[C@H](CO)[C@@H](O)[C@H](O)[C@H]1O [Gentiopicroside] : 37.31

Below: the item to evaluate.
Lab book: survival time of the Demodex mites in vitro of C=C1CC[C@]2(C)CC[C@]3(C)[C@H](CC[C@@H]4[C@@]5(C)CC[C@H](OC(C)=O)C(C)(C)[C@@H]5CC[C@]43C)[C@H]2[C@@H]1C [Taraxasterol acetate] noted as 37.91
